measurement_target: T1, hPAR1 (Biotin) (human, biotin on the C-terminal lysine (GGGGSK-biotin, SKB))
T1 construct: also called hPAR1 peptide
T1 peptide: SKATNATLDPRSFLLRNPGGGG
assay_name: ELISA, hybridoma supernatant
parameter: Binding to PAR1 ratio (ratio)
One number for each entry, in ratio.

1. 5I.RG1 (antibody, IgG3, V domains shown, Human variable regions on mouse constant regions; isotype IgG3/κ; also called 5I.RG1.D6.C1b; 51.RG1) VH: QVQLQQWGAGLLKPSETLSLACAISSGSFSTYFWRWIRQPPGKGLEWIGEIIHTGSTTYNPSLKSRVTISVDTSKNQLSLKLSSVTAADTAVYYCAFEYSSSGGYYYGMDVWGQGTTVTVSS VL: DIQMTQSPSSLSASVGDRVTITCRASQSISSYLNWYQQIPGKAPNLLIYAASSLRSGVPSRFSGSGSGTDFTLTISSLQPEDFATYYCQQTYSTPLTFGGGTKVEIK | 1

# map each binder to its Binding to PAR1 ratio
1. 5H.RH4 (antibody, IgG2b, V domains shown, Human variable regions on mouse constant regions; isotype IgG2b/κ; Tested as parent hybridoma supernatant (MoB5H H4); also called 5H RH4.C8b.A3.A6; MoB5H H4) VH: QVQLQQWGAGLLKPSETLSLTCAVYGGSFSNYYWSWIHQPPGKGLEWIGEINHSGSTNYNPSLKSRVTISVDTSKKQFSLNLSSVTAADTAVYYCKVEHSSSSGHYYYGMDVWGQGTTVTVSS VL: DIQMTQSPSSLSASVGDRVTITCRASQTISYYLNWYQQKPGKAPKLLIYAASRLQSGVPSRFSGSGSGTDFTLTISSLQPEDFTTYYCQQSYSTPLTFGGGTKVGIK
2. 5F.RE6 (antibody, IgG2a, V domains shown, Human variable regions on mouse constant regions; isotype IgG2a/κ; Tested as parent hybridoma supernatant (MoB5F E6); also called 5F RE6.D3.E7; MoB5F E6) VH: QVQLAESGGGVVQPGRSLRVSCAASGFTFSSYGMHWVRQAPGKGLEWVAVIWYDGTKKYYADSLKGRFTISRDNSKYTLYLQMNSLRADDTALYFCARKGARGITGLDYWGQGTLVTVSS VL: DIQMTQSPSSLSASAGDRITITCRASQSISNYLNWYQQKPGKAPKLLIYAASSLQSGVPSRFSGSGSGTDFTLTISSLQPEDFASYYCRQNYNTPLTFGGGTKVEIK
3. 5G.RG1 (antibody, IgG1, V domains shown, Human variable regions on mouse constant regions; isotype IgG1/κ; Tested as parent hybridoma supernatant (MoB5G G1); also called 5G RG1.D3.C2b; MoB5G G1) VH: QVQLVESGGGVVQPGRSLRLSCVASGFTLSSYGMHWVRQAPGKGLEWVAVIWYDGSSKYYTDSVKGRFDISRDNSKNTLYLQMNILRAEDTAVYYCARETILIGGVPFDYWGQGTLVTVSS VL: EIVLTQSPGTLSLSPGERATLSCGASQSIRSNYLAWYQQKPGQAPRLLIYGASSRATGTPDRFSGSGSGTDFTLTITRLEPEDFALYYCQQYGRSYTFGQGTKLEIK

**Result**
[1, 1.1, 1.1]

// data source = patent US20210179707A1
